# testTarget: Tyrosine-protein kinase CSK (Homo sapiens)
# Sequence (P41240 whole entry): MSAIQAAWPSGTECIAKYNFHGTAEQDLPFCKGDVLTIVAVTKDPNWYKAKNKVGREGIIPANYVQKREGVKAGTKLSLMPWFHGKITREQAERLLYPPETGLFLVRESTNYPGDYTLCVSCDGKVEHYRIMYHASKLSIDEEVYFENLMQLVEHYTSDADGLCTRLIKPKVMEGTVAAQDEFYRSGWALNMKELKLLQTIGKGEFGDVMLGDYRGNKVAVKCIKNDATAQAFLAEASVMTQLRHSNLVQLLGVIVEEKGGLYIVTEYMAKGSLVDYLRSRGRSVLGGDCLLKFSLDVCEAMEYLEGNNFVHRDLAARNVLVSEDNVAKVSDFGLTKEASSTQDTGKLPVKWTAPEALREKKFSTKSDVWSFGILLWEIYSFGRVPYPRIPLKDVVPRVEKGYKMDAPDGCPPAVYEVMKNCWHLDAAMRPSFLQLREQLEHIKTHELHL
# experimentNotes: Inhibition of recombinant human full length N-terminal GST-tagged CSK expressed in Escherichia coli BL21 (DE3) cells preincubated for 5 mins followed by biotinyl-beta Abeta Abeta AEEEPQYEEIPIYLELLP substrate addition after 30 to 60 mins in presence of ATP by fluorescence assay
propertyMeasured: IC50 (nM)
Could you give me the number in nM? Just the number is fine.

Lab note: measured IC50 of `C=CS(=O)(=O)N1CCC[C@@H]1Cn1cc(-c2ccc3c(c2)OCO3)c2c(N)ncnc21` was 2830

====

# testTarget: Tyrosine-protein kinase ITK/TSK (Homo sapiens, UniProt Q08881)
# Sequence (Q08881 whole entry, the tested form may be a part): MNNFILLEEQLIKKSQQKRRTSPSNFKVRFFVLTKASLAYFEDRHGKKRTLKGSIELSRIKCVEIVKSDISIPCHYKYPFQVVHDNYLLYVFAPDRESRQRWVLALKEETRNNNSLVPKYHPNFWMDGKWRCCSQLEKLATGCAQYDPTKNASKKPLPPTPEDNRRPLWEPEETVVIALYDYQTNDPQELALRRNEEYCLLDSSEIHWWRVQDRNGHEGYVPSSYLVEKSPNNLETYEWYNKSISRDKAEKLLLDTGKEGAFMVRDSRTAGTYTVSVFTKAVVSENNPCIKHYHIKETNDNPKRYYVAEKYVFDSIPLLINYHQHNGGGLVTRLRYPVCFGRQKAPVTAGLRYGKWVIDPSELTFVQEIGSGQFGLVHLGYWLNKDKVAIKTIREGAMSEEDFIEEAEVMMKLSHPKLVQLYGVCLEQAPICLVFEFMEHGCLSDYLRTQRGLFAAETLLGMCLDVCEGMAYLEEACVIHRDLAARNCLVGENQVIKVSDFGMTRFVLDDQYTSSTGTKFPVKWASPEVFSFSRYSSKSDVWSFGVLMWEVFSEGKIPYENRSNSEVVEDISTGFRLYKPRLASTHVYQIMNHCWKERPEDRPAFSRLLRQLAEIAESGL
# experimentNotes: Inhibition of recombinant human N-terminal His6-tagged ITK (352 to 617 residues) expressed in baculovirus Sf21 insect cells preincubated for 5 mins followed by Ulight-TK peptide substrate addition after 30 to 60 mins in presence of ATP by fluorescence assay
propertyMeasured: pIC50
In simple prose, pIC50 is minus the logarithm base ten of a concentration in moles per litre.

Bench note, Tyrosine-protein kinase ITK/TSK (Homo sapiens, UniProt Q08881): entry `C=CS(=O)(=O)N1CCC[C@@H]1Cn1cc(-c2ccc3c(c2)OCO3)c2c(N)ncnc21` , its pIC50 = 5.25

====

Provide the reported IC50 of each item.
# System: NCI-H1975
# experimentNotes: Antiproliferative activity against human NCI-H1975 cells harboring EGFR L858R/T790M mutant after 72 hrs by MTT assay
# Type: functional, cell-based
# runParameters: NCI-H1975, 72 h
Could you give me the number in nM? Just the number is fine.

Lab note: measured IC50 of `C=CS(=O)(=O)N1CC[C@H](Cn2cc(-c3ccc4c(c3)OCO4)c3c(N)ncnc32)C1` was 330

Lab note: measured IC50 of `C=CS(=O)(=O)N1CC[C@H](Cn2cc(-c3ccc(Oc4ccccc4)cc3)c3c(N)ncnc32)C1` was 910

Lab note: measured IC50 of `C=CS(=O)(=O)N1CCC[C@@H]1Cn1cc(-c2ccc(Oc3ccccc3)cc2)c2c(N)ncnc21` was 440

Lab note: measured IC50 of C=CC(=O)N1CCC(Cn2cc(-c3ccc4c(c3)OCO4)c3c(N)ncnc32)C1 (single isomer, unassigned) was 6300

====

# testTarget: Tyrosine-protein kinase Fgr (Homo sapiens)
# Sequence (P09769 whole entry): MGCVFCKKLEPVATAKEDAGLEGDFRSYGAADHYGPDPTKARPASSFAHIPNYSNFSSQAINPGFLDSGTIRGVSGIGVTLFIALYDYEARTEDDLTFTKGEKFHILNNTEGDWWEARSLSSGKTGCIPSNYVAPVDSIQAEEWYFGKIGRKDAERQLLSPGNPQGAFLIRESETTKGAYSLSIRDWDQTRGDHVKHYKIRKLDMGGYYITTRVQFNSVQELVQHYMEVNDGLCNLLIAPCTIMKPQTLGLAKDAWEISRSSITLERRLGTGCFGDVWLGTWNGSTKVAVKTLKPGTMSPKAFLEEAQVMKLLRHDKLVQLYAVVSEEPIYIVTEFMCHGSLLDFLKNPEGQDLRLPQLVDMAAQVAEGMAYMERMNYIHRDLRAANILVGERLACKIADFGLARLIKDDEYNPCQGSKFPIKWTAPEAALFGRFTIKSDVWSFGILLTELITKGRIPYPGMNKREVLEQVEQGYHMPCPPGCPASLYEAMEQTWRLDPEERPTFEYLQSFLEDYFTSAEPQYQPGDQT
# experimentNotes: Inhibition of recombinant human N-terminal His6-tagged FGR (2 to end residues) expressed in baculovirus Sf21 insect cells preincubated for 5 mins followed by substrate addition after 30 to 60 mins in presence of ATP by fluorescence assay
propertyMeasured: IC50 (nM)
Could you give me the number in nM? Just the number is fine.

Lab note: measured IC50 of `C=CS(=O)(=O)N1CCC[C@@H]1Cn1cc(-c2ccc3c(c2)OCO3)c2c(N)ncnc21` was 133

====

# testTarget: Receptor-type tyrosine-protein kinase FLT3 (Homo sapiens, UniProt P36888)
# Sequence (P36888 whole entry): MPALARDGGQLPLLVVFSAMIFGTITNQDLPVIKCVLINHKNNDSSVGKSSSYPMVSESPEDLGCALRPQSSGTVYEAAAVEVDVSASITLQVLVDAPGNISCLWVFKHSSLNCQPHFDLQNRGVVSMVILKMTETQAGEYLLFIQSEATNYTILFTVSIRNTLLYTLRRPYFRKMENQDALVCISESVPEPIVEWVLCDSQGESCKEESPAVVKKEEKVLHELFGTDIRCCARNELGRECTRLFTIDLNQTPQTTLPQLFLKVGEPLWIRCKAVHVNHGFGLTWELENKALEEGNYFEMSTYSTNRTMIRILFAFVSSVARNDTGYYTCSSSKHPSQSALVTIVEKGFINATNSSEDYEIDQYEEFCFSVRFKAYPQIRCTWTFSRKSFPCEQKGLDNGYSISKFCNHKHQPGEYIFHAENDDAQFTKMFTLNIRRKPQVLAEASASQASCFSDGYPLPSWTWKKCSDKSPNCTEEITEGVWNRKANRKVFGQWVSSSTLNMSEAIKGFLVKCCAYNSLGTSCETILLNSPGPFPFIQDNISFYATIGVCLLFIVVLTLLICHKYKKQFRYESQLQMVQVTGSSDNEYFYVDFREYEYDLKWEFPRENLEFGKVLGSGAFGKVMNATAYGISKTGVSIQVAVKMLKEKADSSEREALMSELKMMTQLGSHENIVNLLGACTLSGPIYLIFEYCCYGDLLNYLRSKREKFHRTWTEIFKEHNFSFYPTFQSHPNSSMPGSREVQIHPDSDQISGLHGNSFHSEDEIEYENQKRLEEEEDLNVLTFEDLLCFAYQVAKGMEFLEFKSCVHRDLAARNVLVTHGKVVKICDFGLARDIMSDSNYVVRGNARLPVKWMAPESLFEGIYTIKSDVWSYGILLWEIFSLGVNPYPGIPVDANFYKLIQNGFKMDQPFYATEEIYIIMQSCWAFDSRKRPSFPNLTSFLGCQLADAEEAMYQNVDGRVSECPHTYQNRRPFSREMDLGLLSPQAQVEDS
# experimentNotes: Inhibition of recombinant human N-terminal GST-tagged FLT3 (564 to end residues) expressed in expressed in Sf21 cells preincubated for 5 mins followed by substrate addition after 30 to 60 mins in presence of ATP by fluorescence assay
propertyMeasured: IC50 (µM)
Could you give me the number in µM? Just the number is fine.

Bench note, Receptor-type tyrosine-protein kinase FLT3 (Homo sapiens, UniProt P36888): entry `C=CS(=O)(=O)N1CCC[C@@H]1Cn1cc(-c2ccc3c(c2)OCO3)c2c(N)ncnc21` , its IC50 = 3.28
